- procedureSummary: recombinant UMI read abundance after kanamycin selection (control-corrected) (log10(CPM+1)); higher = more efficient recombination; extreme values may be limits of the assay; sequences stand for … in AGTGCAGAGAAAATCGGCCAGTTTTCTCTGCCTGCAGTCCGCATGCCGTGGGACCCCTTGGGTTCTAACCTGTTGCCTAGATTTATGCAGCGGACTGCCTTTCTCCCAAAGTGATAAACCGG…AGGTTGGTTTCACT; site = the 11-nt donor
Recorded recombinant UMI read abundance (log10), one value per entry.
Reply with the value as a number alone.

residueSequence: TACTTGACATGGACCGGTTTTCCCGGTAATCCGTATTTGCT (site TTCTTGACTAG)
recombinant UMI read abundance (log10): 0

residueSequence: TACGCAACATGGACCGGTTTTCCCGGTAATCCGTATTTGAC (site TACGCAACTGT)
recombinant UMI read abundance (log10): 2

residueSequence: CGGGTACCATGGACCGGTTTTCCCGGTAATCCGTATTTGTA (site CGGGTACCTTA)
recombinant UMI read abundance (log10): 0.00704

residueSequence: ACATTTACATGGACCGGTTTTCCCGGTAATCCGTATTTGTG (site ACATTTACTCA)
recombinant UMI read abundance (log10): 0.706

residueSequence: TCATGACCATGGACCGGTTTTCCCGGTAATCCGTATTTGCG (site TCATGACCTCG)
recombinant UMI read abundance (log10): 0.00794

Continue with the next sequence.
The recorded recombinant UMI read abundance (log10) for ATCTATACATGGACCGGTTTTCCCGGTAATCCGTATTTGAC (site ATCAATACTGT) is 0

====

Recorded recombinant barcode read abundance (log10), one value per entry.
- procedureSummary: recombinant barcode read abundance after kanamycin selection (control-corrected) (log10(CPM+1)); higher = more efficient recombination; sequences stand for … in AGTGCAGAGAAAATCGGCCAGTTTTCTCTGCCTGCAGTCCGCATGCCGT…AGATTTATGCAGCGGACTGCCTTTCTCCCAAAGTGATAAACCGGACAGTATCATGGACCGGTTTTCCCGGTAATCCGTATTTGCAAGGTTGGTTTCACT; site = the 11-nt target
Reply with the value as a number alone.

Examples with answers:
residueSequence: ATCGAGTCTTGGGTTCTAACCTGTTGCCT (site ACCGAGTCTAG)
recordedResult: 1.11
//
residueSequence: TCAGCGACTTGGGTTCTAACCTGTTGCCT (site TCCGCGACTAG)
recordedResult: 0.139

The recorded recombinant barcode read abundance (log10) for CTTCGGACTTGGGTTCTAACCTGTTGCTT (site GAGTCTCCTCC) is 0.133

The recorded recombinant barcode read abundance (log10) for TGTCATGCTTGGGTTCTAACCTGTTGCGT (site TGTCATGCTAC) is 0.163

The recorded recombinant barcode read abundance (log10) for GGAATGACTTGGGTTCTAACCTGTTGCCT (site GAAATGACTAG) is 0.344

The recorded recombinant barcode read abundance (log10) for CTGGAACCTTGGGTTCTAACCTGTTGCGG (site CTAGAAGCTCC) is 0

====

Recorded recombinant barcode read abundance (log10), one value per entry.
- procedureSummary: recombinant barcode read abundance after kanamycin selection (control-corrected) (log10(CPM+1)); higher = more efficient recombination; sequences stand for … in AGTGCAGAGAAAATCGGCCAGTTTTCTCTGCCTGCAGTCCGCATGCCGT…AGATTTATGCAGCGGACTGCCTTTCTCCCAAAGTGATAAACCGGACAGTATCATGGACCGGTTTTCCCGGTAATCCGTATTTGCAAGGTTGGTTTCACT; site = the 11-nt target
Reply with the value as a number alone.

The recorded recombinant barcode read abundance (log10) for GTCGGCACTTGGGTTCTAACCTGTTGCCT (site GTCGGCACTAG) is 0.491

The recorded recombinant barcode read abundance (log10) for CGGCCACCTTGGGTTCTAACCTGTTGCTT (site AATGGGGCTCT) is 0.0969

The recorded recombinant barcode read abundance (log10) for GATGTAACTTGGGTTCTAACCTGTTGCCT (site GACGTAACTAG) is 0.101

The recorded recombinant barcode read abundance (log10) for CCAATGTCTTGGGTTCTAACCTGTTGCGT (site GTTCGTCCTTG) is 0.047

====

- procedureSummary: recombinant barcode read abundance after kanamycin selection (control-corrected) (log10(CPM+1)); higher = more efficient recombination; sequences stand for … in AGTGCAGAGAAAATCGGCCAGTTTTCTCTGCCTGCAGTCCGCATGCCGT…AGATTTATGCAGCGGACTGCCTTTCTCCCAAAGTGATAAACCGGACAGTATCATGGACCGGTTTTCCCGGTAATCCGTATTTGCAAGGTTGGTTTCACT; site = the 11-nt target
// criterion not met strictly below 0.06 in recombinant barcode read abundance (log10); criterion met otherwise

residueSequence: AAAGTACCTTGGGTTCTAACCTGTTGCCT (site GAAGTACCTAG)
qualitativeLabel: criterion not met
//
residueSequence: AGACATCCTTGGGTTCTAACCTGTTGCTT (site AGACGTCCTAA)
qualitativeLabel: criterion not met
//
residueSequence: TAACTCTCTTGGGTTCTAACCTGTTGCCT (site TCACTCTCTAG)
qualitativeLabel: criterion not met
//
residueSequence: TTGGCGACTTGGGTTCTAACCTGTTGCCA (site TTGACGACTTG)
qualitativeLabel: criterion met
//
residueSequence: AACAATGCTTGGGTTCTAACCTGTTGCCT (site AACATTGCTAG)
qualitativeLabel: criterion not met

Asked: # check: recombinant barcode read abundance (log10) of TTGTACCCTTGGGTTCTAACCTGTTGCCT (site TTCTTCCCTAG) is greater than or equal to 0.06
Given back: criterion not met

Asked: # check: recombinant barcode read abundance (log10) of CCTGGGCCTTGGGTTCTAACCTGTTGCCT (site CCTGGGCCTAG) is greater than or equal to 0.06
Given back: criterion met

Asked: # check: recombinant barcode read abundance (log10) of ATTGGGTCTTGGGTTCTAACCTGTTGCCT (site ATTGGCTCTAG) is greater than or equal to 0.06
Given back: criterion met

====

- procedureSummary: recombinant UMI read abundance after kanamycin selection (control-corrected) (log10(CPM+1)); higher = more efficient recombination; extreme values may be limits of the assay; sequences stand for … in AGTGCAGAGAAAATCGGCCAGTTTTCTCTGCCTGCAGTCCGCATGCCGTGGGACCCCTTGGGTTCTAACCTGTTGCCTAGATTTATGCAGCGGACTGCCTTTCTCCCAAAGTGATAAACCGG…AGGTTGGTTTCACT; site = the 11-nt donor
// No strictly below 1 in recombinant UMI read abundance (log10); Yes otherwise

Solved cases (6 shown):
residueSequence: GAGAAGCCATGGACCGGTTTTCCCGGTAATCCGTATTTGGG (site GCGAAGCCTCC)
qualitativeLabel: No
//
residueSequence: TCATAGGCATGGACCGGTTTTCCCGGTAATCCGTATTTGAG (site TCATAGGCTCT)
qualitativeLabel: Yes
//
residueSequence: ATCTCTACATGGACCGGTTTTCCCGGTAATCCGTATTTGAC (site ATCTCTACTGT)
qualitativeLabel: Yes
//
residueSequence: CGGGAAGCATGGACCGGTTTTCCCGGTAATCCGTATTTGAT (site CGGGAAACTAT)
qualitativeLabel: Yes
//
residueSequence: ACATAGACATGGACCGGTTTTCCCGGTAATCCGTATTTGGG (site ACTTAGACTCC)
qualitativeLabel: No
//
residueSequence: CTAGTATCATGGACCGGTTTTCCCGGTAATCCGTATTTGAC (site CTCGTATCTCT)
qualitativeLabel: No

Asked: # check: recombinant UMI read abundance (log10) of CTGGGAACATGGACCGGTTTTCCCGGTAATCCGTATTTGCA (site CTGGCAACTTG) is greater than or equal to 1
Given back: No

Asked: # check: recombinant UMI read abundance (log10) of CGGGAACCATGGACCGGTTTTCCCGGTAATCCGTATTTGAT (site CGGGGACCTAT) is greater than or equal to 1
Given back: No

Asked: # check: recombinant UMI read abundance (log10) of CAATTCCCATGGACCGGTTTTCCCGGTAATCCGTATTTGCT (site TAATTCCCTAG) is greater than or equal to 1
Given back: No

====

- procedureSummary: recombinant barcode read abundance after kanamycin selection (control-corrected) (log10(CPM+1)); higher = more efficient recombination; sequences stand for … in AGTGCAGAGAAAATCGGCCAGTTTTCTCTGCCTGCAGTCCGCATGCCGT…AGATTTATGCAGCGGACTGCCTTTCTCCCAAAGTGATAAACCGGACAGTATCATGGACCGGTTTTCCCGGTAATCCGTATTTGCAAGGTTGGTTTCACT; site = the 11-nt target
// rule not met strictly below 0.09 in recombinant barcode read abundance (log10); rule met otherwise

Solved cases (8 shown):
residueSequence: GCATGGACTTGGGTTCTAACCTGTTGCAG (site GCAGGGACTCT)
qualitativeLabel: rule met
--
residueSequence: GTGTACTCTTGGGTTCTAACCTGTTGCTT (site GTGTACTCTAA)
qualitativeLabel: rule met
--
residueSequence: CTAAGTGCTTGGGTTCTAACCTGTTGCCA (site CTAAGCGCTTG)
qualitativeLabel: rule not met
--
residueSequence: GTACAGACTTGGGTTCTAACCTGTTGCCT (site GTGCAGACTAG)
qualitativeLabel: rule not met
--
residueSequence: TATTCTACTTGGGTTCTAACCTGTTGCGT (site TATTCTACTCC)
qualitativeLabel: rule met
--
residueSequence: ACTTTAACTTGGGTTCTAACCTGTTGCTT (site ACTGTAACTAA)
qualitativeLabel: rule met
--
residueSequence: AAGCTCCCTTGGGTTCTAACCTGTTGCCT (site ACACTCCCTAG)
qualitativeLabel: rule met
--
residueSequence: TGTATAGCTTGGGTTCTAACCTGTTGCTA (site GGTTTAGCTTA)
qualitativeLabel: rule not met

Asked: # check: recombinant barcode read abundance (log10) of ACCTTGCCTTGGGTTCTAACCTGTTGCCT (site ACATTGCCTAG) is greater than or equal to 0.09
Given back: rule met

Asked: # check: recombinant barcode read abundance (log10) of TGTAGAGCTTGGGTTCTAACCTGTTGCCG (site TGTCGAGCTCG) is greater than or equal to 0.09
Given back: rule met
